assay-summary: log P determination by HPLC (reversed-phase C18), EEC Directive 79/831 Annex V.A8
Assay type: physicochemical
experimental-setup: reversed-phase C18 HPLC column; pH 2.3; HPLC, reversed-phase C 18, 43° C., 0.1% aqueous phosphoric acid/acetonitrile; read-out: log P (pH 2.3)
// NB: equality with 3 counts as Not satisfied; only chromatographic logP strictly below is Satisfied

Illustrative cases are given below, each with its answer.
Bench note: check whether CCOC(=O)CSc1nccc(-c2nccc3ccccc23)n1 shows chromatographic logP below 3 Satisfied

Bench note: check whether O=C(CSc1nccc(-c2ccccn2)n1)OC1CCCCC1 shows chromatographic logP below 3 Not satisfied

Bench note: check whether CN(C(=O)CSc1nccc(-c2ccccn2)n1)c1ccc(Cl)cc1 shows chromatographic logP below 3 Satisfied

Bench note: check whether COC(=O)CCSc1nccc(-c2ccccn2)n1 shows chromatographic logP below 3 Satisfied

Bench note: check whether COC(=O)CCCSc1nccc(-c2ccccn2)n1 shows chromatographic logP below 3 Satisfied

More entries:
Bench note: check whether CC(=O)OC(C)C(C)OC(=O)CSc1nccc(-c2ccccn2)n1 (stereo not shown) shows chromatographic logP below 3 Satisfied

Bench note: check whether CC(C)(C)SC(=O)CSc1nccc(-c2ccccn2)n1 shows chromatographic logP below 3 Not satisfied

Bench note: check whether CCOC(=O)/C=C(/CSc1nccc(-c2ccccn2)n1)OCC shows chromatographic logP below 3 Not satisfied
